MEASURED_TARGET: T1, human CD3 E&D complex protein (Sino Biological Inc., CT026H0323H) (human, UniProt P07766 23-126; P04234 22-105)
T1 construct: bought heterodimer; also called human CD3 protein (CT026H0323H)
T1 sequence (P07766 23-126, chain 1 of 2): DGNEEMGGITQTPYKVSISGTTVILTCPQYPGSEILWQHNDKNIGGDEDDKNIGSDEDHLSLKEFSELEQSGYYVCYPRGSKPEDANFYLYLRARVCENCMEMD
T1 sequence (P04234 22-105, chain 2 of 2): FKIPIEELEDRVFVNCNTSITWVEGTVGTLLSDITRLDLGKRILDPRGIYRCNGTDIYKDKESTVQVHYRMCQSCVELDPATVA
MEASUREMENT_PROTOCOL: BLI, antibody on sensor
MEASURE_NAME: binding result

# BINDER, VALUE_OBSERVED
records = [
    ("hzsp34.33 (antibody, human IgG1, kappa, L234A L235A, V domains shown, IgG1 L234A L235A, kappa) VH: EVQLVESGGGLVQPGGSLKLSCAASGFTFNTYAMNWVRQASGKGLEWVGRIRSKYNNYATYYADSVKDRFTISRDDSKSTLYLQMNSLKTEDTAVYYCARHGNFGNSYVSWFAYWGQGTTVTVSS VL: EIVMTQSPATLSVSPGERATLSCRSSTGAVTTSNYANWVQQKPGQAPRLLIGGTNKRAPGVPARFSGSGSGTEFTLTISSLQSEDFAVYYCALWYSNLWVFGQGTKLTVLR", "no binding"),
    ("hzsp34.35 (antibody, human IgG1, kappa, L234A L235A, V domains shown, IgG1 L234A L235A, kappa) VH: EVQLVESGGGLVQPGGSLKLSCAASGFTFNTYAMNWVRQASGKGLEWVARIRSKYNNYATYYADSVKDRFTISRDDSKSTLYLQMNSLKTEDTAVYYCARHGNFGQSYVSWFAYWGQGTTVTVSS VL: EIVMTQSPATLSVSPGERATLSCRSSTGAVTTSNYANWVQQKPGQAPRLLIGGTNKRAPGVPARFSGSGSGTEFTLTISSLQSEDFAVYYCALWYSNLWVFGQGTKLTVLR", "no binding"),
    ("hzsp34.9 (antibody, human IgG1, lambda, L234A L235A, V domains shown, IgG1 L234A L235A, lambda) VH: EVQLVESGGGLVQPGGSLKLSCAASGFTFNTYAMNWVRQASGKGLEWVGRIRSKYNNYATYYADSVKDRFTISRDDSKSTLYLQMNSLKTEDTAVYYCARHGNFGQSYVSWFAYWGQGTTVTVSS VL: QAVVTQEPSLTVSPGGTVTLTCRSSTGAVTTSNYANWFQQKPGQAPRTLIYGTNKRAPWTPARFSGSLLGGKAALTLLGAQPEDEAEYYCALWYSNLWVFGQGTKLTVLG", "no binding"),
]
